Below: a set of entries, each annotated with reported MIC against S. aureus ATCC 13709, CAMHB + 50% human serum.
tested on: S. aureus ATCC 13709; assay: In vitro antibacterial susceptibility (MIC, broth microdilution); format: cell-based; conditions: CAMHB + 50% human serum
Form entry: value (mg/L) — number only.

These solved cases illustrate the format of a correct answer.
# Compound, Unit Abbreviation, Measurement
rows = [
    ("CC(C)CC(C(=O)NC1C(=O)NC(CC(N)=O)C(=O)NC2C(=O)NC3C(=O)NC(C(=O)NC(C(=O)O)c4cc(O)cc(O)c4-c4cc3ccc4O)C(OC3CC(C)(N)C(O)C(C)O3)c3ccc(c(Cl)c3)Oc3cc2cc(c3OC2OC(CO)C(O)C(O)C2OC2CC(C)(NCc3ccc(-c4ccc(Cl)cc4)cc3)C(O)C(C)O2)Oc2ccc(cc2Cl)C1O)N(C)C(=O)CCC(=O)N(CC(=O)O)CC(=O)O (stereo not drawn) [Compound 13]", "mg/L", 64),
    ("CC(C)CC(C(=O)NC1C(=O)NC(CC(N)=O)C(=O)NC2C(=O)NC3C(=O)NC(C(=O)NC(C(=O)O)c4cc(O)cc(O)c4-c4cc3ccc4O)C(OC3CC(C)(N)C(O)C(C)O3)c3ccc(c(Cl)c3)Oc3cc2cc(c3OC2OC(CO)C(O)C(O)C2OC2CC(C)(NCc3ccc(-c4ccc(Cl)cc4)cc3)C(O)C(C)O2)Oc2ccc(cc2Cl)C1O)N(C)C(=O)OCOC(=O)CCP(=O)(O)O (stereo not drawn) [Compound 84]", "mg/L", 0.5),
    ("CC(C)CC(C(=O)NC1C(=O)NC(CC(N)=O)C(=O)NC2C(=O)NC3C(=O)NC(C(=O)NC(C(=O)O)c4cc(O)cc(O)c4-c4cc3ccc4O)C(OC3CC(C)(N)C(O)C(C)O3)c3ccc(c(Cl)c3)Oc3cc2cc(c3OC2OC(CO)C(O)C(O)C2OC2CC(C)(NCc3ccc(-c4ccc(Cl)cc4)cc3)C(O)C(C)O2)Oc2ccc(cc2Cl)C1O)N(C)C(=O)OCOC(=O)CCC(=O)NC(CCC(=O)O)(CCC(=O)O)CCC(=O)O (stereo not drawn) [Compound 78]", "mg/L", 16),
    ("CNC(CC(C)C)C(=O)NC1C(=O)NC(CC(N)=O)C(=O)NC2C(=O)NC3C(=O)NC(C(=O)NC(C(=O)SCC[N+](C)(C)C)c4cc(O)cc(O)c4-c4cc3ccc4O)C(OC3CC(C)(N)C(O)C(C)O3)c3ccc(c(Cl)c3)Oc3cc2cc(c3OC2OC(CO)C(O)C(O)C2OC2CC(C)(NCc3ccc(-c4ccc(Cl)cc4)cc3)C(O)C(C)O2)Oc2ccc(cc2Cl)C1O (stereo not drawn) [Compound 98]", "mg/L", 0.25),
    ("CNC(CC(C)C)C(=O)NC1C(=O)NC(CC(N)=O)C(=O)NC2C(=O)NC3C(=O)NC(C(=O)NC(C(=O)OCC(=O)NCCCNCCCN)c4cc(O)cc(O)c4-c4cc3ccc4O)C(OC3CC(C)(N)C(O)C(C)O3)c3ccc(c(Cl)c3)Oc3cc2cc(c3OC2OC(CO)C(O)C(O)C2OC2CC(C)(NCc3ccc(-c4ccc(Cl)cc4)cc3)C(O)C(C)O2)Oc2ccc(cc2Cl)C1O (stereo not drawn) [Compound 66]", "mg/L", 0.125),
]

Let us move to another entry and its MIC against S. aureus ATCC 13709, CAMHB + 50% human serum.
Returns the measured MIC against S. aureus ATCC 13709, CAMHB + 50% human serum for the input compound. Input: CNC(CC(C)C)C(=O)NC1C(=O)NC(CC(N)=O)C(=O)NC2C(=O)NC3C(=O)NC(C(=O)NC(C(=O)OCC(=O)NCCN)c4cc(O)cc(O)c4-c4cc3ccc4O)C(OC3CC(C)(N)C(O)C(C)O3)c3ccc(c(Cl)c3)Oc3cc2cc(c3OC2OC(CO)C(O)C(O)C2OC2CC(C)(NCc3ccc(-c4ccc(Cl)cc4)cc3)C(O)C(C)O2)Oc2ccc(cc2Cl)C1O (stereo not drawn) [Compound 90a]
0.25

---

tested on: S. aureus strain ATCC13709; experiment: Neutropenic mouse thigh infection model; assay type: in vivo, mice; details: neutropenic mice, 10 mg/kg one hour after inoculation, 24 h postinfection
Result Type: Recovered bacterial titers per thigh, 10 mg/kg (Log10 CFU/thigh)
Write the value in Log10 CFU/thigh as a bare number.

Reference set (3 entries):
# Molecule, Unit Abbreviation, Measurement
records = [
    ("CNC(CC(C)C)C(=O)NC1C(=O)NC(CC(N)=O)C(=O)NC2C(=O)NC3C(=O)NC(C(=O)NC(C(=O)OCC(=O)NCCCNCCCN)c4cc(O)cc(O)c4-c4cc3ccc4O)C(OC3CC(C)(N)C(O)C(C)O3)c3ccc(c(Cl)c3)Oc3cc2cc(c3OC2OC(CO)C(O)C(O)C2OC2CC(C)(NCc3ccc(-c4ccc(Cl)cc4)cc3)C(O)C(C)O2)Oc2ccc(cc2Cl)C1O (stereo not shown) [Compound 66]", "Log10 CFU/thigh", 3.96),
    ("CNC(CC(C)C)C(=O)NC1C(=O)NC(CC(N)=O)C(=O)NC2C(=O)NC3C(=O)NC(C(=O)NC(C(=O)OCC(=O)NCCN)c4cc(O)cc(O)c4-c4cc3ccc4O)C(OC3CC(C)(N)C(O)C(C)O3)c3ccc(c(Cl)c3)Oc3cc2cc(c3OC2OC(CO)C(O)C(O)C2OC2CC(C)(NCc3ccc(-c4ccc(Cl)cc4)cc3)C(O)C(C)O2)Oc2ccc(cc2Cl)C1O (stereo not shown) [Compound 90a]", "Log10 CFU/thigh", 6.13),
    ("CNC(CC(C)C)C(=O)NC1C(=O)NC(CC(N)=O)C(=O)NC2C(=O)NC3C(=O)NC(C(=O)NC(C(=O)OCC(=O)NCCCN)c4cc(O)cc(O)c4-c4cc3ccc4O)C(OC3CC(C)(N)C(O)C(C)O3)c3ccc(c(Cl)c3)Oc3cc2cc(c3OC2OC(CO)C(O)C(O)C2OC2CC(C)(NCc3ccc(-c4ccc(Cl)cc4)cc3)C(O)C(C)O2)Oc2ccc(cc2Cl)C1O (stereo not shown) [Compound 90b]", "Log10 CFU/thigh", 6.44),
]

Proceed to the following item.
Hello, I am looking for reported Recovered bacterial titers per thigh, 10 mg/kg with S. aureus strain ATCC13709 for CNC(CC(C)C)C(=O)NC1C(=O)NC(CC(N)=O)C(=O)NC2C(=O)NC3C(=O)NC(C(=O)NC(C(=O)OCC[N+](C)(C)C)c4cc(O)cc(O)c4-c4cc3ccc4O)C(OC3CC(C)(N)C(O)C(C)O3)c3ccc(c(Cl)c3)Oc3cc2cc(c3OC2OC(CO)C(O)C(O)C2OC2CC(C)(NCc3ccc(-c4ccc(Cl)cc4)cc3)C(O)C(C)O2)Oc2ccc(cc2Cl)C1O (stereo not shown) [Compound 95] . Could you help?
3.95

---

assay: Solubility in phosphate buffered saline; type: physicochemical; details: 10 mM phosphate buffered saline (0.138 M NaCl, 2.7 mM KCl), pH 7.4
Result Type: Solubility (mg/mL) PBS

Look over these answered cases.
# Compound, Solubility (mg/mL) PBS
records = [
    ("CNC(CC(C)C)C(=O)NC1C(=O)NC(CC(N)=O)C(=O)NC2C(=O)NC3C(=O)NC(C(=O)NC(C(=O)OCC(=O)NCCCNCCCCNCCCN)c4cc(O)cc(O)c4-c4cc3ccc4O)C(OC3CC(C)(N)C(O)C(C)O3)c3ccc(c(Cl)c3)Oc3cc2cc(c3OC2OC(CO)C(O)C(O)C2OC2CC(C)(NCc3ccc(-c4ccc(Cl)cc4)cc3)C(O)C(C)O2)Oc2ccc(cc2Cl)C1O (centres unmarked)", "≧100 mg/mL"),
    ("CN[C@H](CC(C)C)C(=O)N[C@H]1C(=O)N[C@@H](CC(N)=O)C(=O)N[C@H]2C(=O)N[C@H]3C(=O)N[C@H](C(=O)N[C@H](C(=O)O)c4cc(O)cc(O)c4-c4cc3ccc4O)[C@H](O[C@H]3C[C@](C)(N)[C@@H](O)[C@H](C)O3)c3ccc(c(Cl)c3)Oc3cc2cc(c3O[C@@H]2O[C@H](CO)[C@@H](O)[C@H](O)[C@H]2O[C@H]2C[C@](C)(NCc3ccc(-c4ccc(Cl)cc4)cc3)[C@@H](O)[C@H](C)O2)Oc2ccc(cc2Cl)[C@H]1O [Oritavancin (5), oritavancin, reference compound]", "<0.1 mg/mL"),
    ("CC(C)CC(C(=O)NC1C(=O)NC(CC(N)=O)C(=O)NC2C(=O)NC3C(=O)NC(C(=O)NC(C(=O)O)c4cc(O)cc(O)c4-c4cc3ccc4O)C(OC3CC(C)(N)C(O)C(C)O3)c3ccc(c(Cl)c3)Oc3cc2cc(c3OC2OC(CO)C(O)C(O)C2OC2CC(C)(NCc3ccc(-c4ccc(Cl)cc4)cc3)C(O)C(C)O2)Oc2ccc(cc2Cl)C1O)N(C)C(=O)OCOC(=O)CCP(=O)(O)O (centres unmarked)", "0.5 to 1 mg/mL"),
    ("CNC(CC(C)C)C(=O)NC1C(=O)NC(CC(N)=O)C(=O)NC2C(=O)NC3C(=O)NC(C(=O)NC(C(=O)NCCCNCCCCNCCCN)c4cc(O)cc(O)c4-c4cc3ccc4O)C(OC3CC(C)(N)C(O)C(C)O3)c3ccc(c(Cl)c3)Oc3cc2cc(c3OC2OC(CO)C(O)C(O)C2OC2CC(C)(NCc3ccc(-c4ccc(Cl)cc4)cc3)C(O)C(C)O2)Oc2ccc(cc2Cl)C1O (centres unmarked)", "≧100 mg/mL"),
]

Form field: reported Solubility (mg/mL) PBS of CNC(CC(C)C)C(=O)NC1C(=O)NC(CC(N)=O)C(=O)NC2C(=O)NC3C(=O)NC(C(=O)NC(C(=O)OCC(=O)NCCCN)c4cc(O)cc(O)c4-c4cc3ccc4O)C(OC3CC(C)(N)C(O)C(C)O3)c3ccc(c(Cl)c3)Oc3cc2cc(c3OC2OC(CO)C(O)C(O)C2OC2CC(C)(NCc3ccc(-c4ccc(Cl)cc4)cc3)C(O)C(C)O2)Oc2ccc(cc2Cl)C1O (centres unmarked) [Compound 90b]
≧100 mg/mL
